B1: tRNA (parent)
chain: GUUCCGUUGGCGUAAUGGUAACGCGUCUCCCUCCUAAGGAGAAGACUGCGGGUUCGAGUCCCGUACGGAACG

# Variants of: B1
# assay: yeast fitness relative to wild type (ratio to wild type); higher = fitter; tRNA-Arg(CCU), competitive growth, 37 C, YPD
This sample holds only a part of the variants without activity.
Note to self: values exactly at 0.6 are true (1). So yeast fitness at or above 0.6 is true (1), below is false (0).

Some entries whose results are on file:
GUUCGGUUGGCGUAAUGGUAACGCGUCUCCCUCCUAAGGAGAACACUGUGGGUUCGAGGCCCGUACGGAACG [C5G G44C C49U U59G]
false (0)
GUUCCGCUGGCGUAAUGGUAACGCGUCACCCUCCUAGGGAGAAGAUCGCGGGUUCGAGUCCCGUACGGAACG [U7C U28A A37G C46U U47C]
false (0)
GUUCCGUUGGCGUAAUGAUAACGCGUCUCCCUCUUAAGGGGAAGACCGCGGGUUCGAGUCCCGUACGGAACG [G18A C34U A40G U47C]
false (0)
GUUCCGUUGGCGUAAUGGUAAAGCGUCUCCCUACUAAGCAGAAGACUGCGGGUUCGAGUCCCGUACGGAACG [C22A C33A G39C]
false (0)
GUUCAGUUGGCGUAAUGGUAACGCGUCUCCCUCCUAAGAAGAAAACUGCGGGUUCGAGUCCCGUACGGAACG [C5A G39A G44A]
true (1)
GUUCCGUUGGCGUAAUGGUCACGCGUCUCCCUCCUAAGGAGAACACUGCGGGUUCGAGUCCCGUACGGAUCG [A20C G44C A70U]
false (0)

Does the reported yeast fitness for GUUCCGUUGGCGUAAUGGUAACGCGUCUCCCUCUUAAGGAGAAGACUGCAGGUUCCAGUCCCGUACGGAACG [C34U G50A G56C] fall at or above the 0.6 mark? true (1)

Does the reported yeast fitness for GGUCCGUUGGCGUAAUGGUAACGCGUCUUCCUCCUAAGGAGAACACUGCGGGUACGAGUCCCGUACGGAACG [U2G C29U G44C U54A] fall at or above the 0.6 mark? false (0)

Does the reported yeast fitness for GUUCCGUUGGUGUAAUGGUAACGCGUCUCCCUCCUAAGGAGAAGACUGCGCGUUCGAGUCCCGUACGGAACG [C11U G51C] fall at or above the 0.6 mark? true (1)

Does the reported yeast fitness for GUUCCGUUGGCGUAAUGGUAACGCGUCUCCCUCCUAAGGAGAAGACUGGGGGUUCGAGUCCCGUACGGCACG [C49G A69C] fall at or above the 0.6 mark? true (1)

Does the reported yeast fitness for GAUCCGUUGGCGUAUUGGUAACGCGUCUCCCUCCUAAGGAGAAGACUGGGGGUUCGAGUCCCGUACGGAACG [U2A A15U C49G] fall at or above the 0.6 mark? false (0)
